Entries and their measured Binding of mAb-2 to SRA Pre-complexed with mAb-1 follow.
Target: T1, SRA.mmh
T1 construct: also called SRA.mmh (CHO)
T1 antigen: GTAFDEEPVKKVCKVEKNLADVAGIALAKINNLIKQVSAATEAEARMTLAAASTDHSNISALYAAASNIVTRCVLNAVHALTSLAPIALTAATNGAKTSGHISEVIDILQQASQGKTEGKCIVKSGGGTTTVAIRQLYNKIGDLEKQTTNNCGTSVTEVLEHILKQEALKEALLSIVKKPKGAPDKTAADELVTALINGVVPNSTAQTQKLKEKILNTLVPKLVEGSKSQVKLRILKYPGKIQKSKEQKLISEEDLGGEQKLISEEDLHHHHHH
Assay: Octet, mAb-2 at 50 ug/mL on captured SRA.mmh after negative control α-PRLR H1H6800P as mAb-1 (row 32 (-))
I'd appreciate a reply containing only the number, no unit.

Binder: H1H10031P (antibody, V domains shown, Fully human antibody with human IgG1 Fc (prefix H1H)) VH: EVQLVESGGNVVRPGGSLRLSCSGSGFAFENYGMSWVRQGPGKGLEWVSNINWNGGSLNYVDSVKGRFTISRDNAKNSLYLQMNSLRAEDTALYYCARVIVYGMDVWGQGTTVTVSS VL: DIQMTQSPSSLSASVGDRVTITCRASQGIRNGLGWFQQKPGKAPKRLIYATSSLQSGVPSRFSGSGSGTEFTLTISSLQPEDFATYYCLQSNSYPWTFGQGTKVEIK
Value: 1.58

Binder: H2bM10093N (antibody, V domains shown, Chimeric antibody, human variable domains and mouse constant domains; also called H2aM10093N; H2M10093N) VH: EVQLVESGGGLVKPGGSLRLSCVASGFTLSGYSMNWVRQAPGKGLEWVSSISTSSSYIYYADSVQGRFTISRDNAKNSLYLQMNSLRAEDTAVYYCVRKGANWIYFDYWGQGTLVTVSS VL: DIQMTQSPSSVSASVGDRVTITCRASQGISSLLAWFQQKPGKAPNLLIYAASSLQSGVPSRFSGSGSGTDFTLTISSLQPEDFATYYCQQAKSFPFTFGPGTKVDIK
Value: 1.32

Binder: H2aM10204N (antibody, V domains shown, Chimeric antibody, human variable domains and mouse constant domains (mouse Fc, prefix H2aM); also called H2M10204N) VH: QVHLVQSGAEVKKPGSSVKVSCKASGGTFSNYAISWVRQAPGQGLEWMGGIIPFSGSATYAQNFQGRITITTDESTRTAYMELNGLRSEDTAVYYCARWFSGYGGDFDYWGQGTLVTVSS VL: AIQMTQSPSSLSASVGDRVTITCRASQDIKNDLGWYQQKPGKAPKLLIYAASTLQSGVPSRFSGSGSGTHFTLTLSSLQPEDFATYFCLQDYTFPRTFGQGTKVEIK
Value: 1.08

Binder: H2aM10201N (antibody, V domains shown, Chimeric antibody, human variable domains and mouse constant domains (mouse Fc, prefix H2aM); also called H2M10201N) VH: QVQLLESGGGVVQPGKSLRLSCVASGSIFSIYGMNWVRQAPGKGLEWVASVSSDGSAKFYADSVKGRFTISRDNSNDTLFLQMTSLRAEDTAVYYCAKTLWNYLFDSWGQGTLVTVSS VL: ENVLTQSPDTLSLSPGERATLSCRASQSITSNYLAWYQQKPGQTPRLLISFTSRRATGIPDRFSGSGSGTVFTLTISRLEPEDFAVYYCQQYGTSLTFGGGAKVEIR
Value: 1.31

Next binder, Binding of mAb-2 to SRA Pre-complexed with mAb-1 to be filled in.
Hello, please tell me recorded Binding of mAb-2 to SRA Pre-complexed with mAb-1 for this one: H1H10058P (antibody, V domains shown, Fully human antibody with human IgG1 Fc (prefix H1H)) VH: EVQLVESGGGLVQPGGSLRLSCAASGFTFNDFFMSWVRQAPGKGLEWVANLNQDGSERHYVDSVKGRFTISRDNAKNSLSLQMNSLRVEDTAVYYCAREGGDSWGQGTLVTVSS VL: DIVMTQSPDSLAVSLGERVTINCKSSQSILYSANNKDYLAWFHQKPGQPPKLLIYWASIRESGVPDRISGSGSGTDFTLTISSLQAEDVAVYYCQQYYLFPPTFGQGTKVEIK 1.27
